Target Under Test: TDP-43 (Homo sapiens, UniProt Q13148 1-414)
Sequence (Q13148 whole entry): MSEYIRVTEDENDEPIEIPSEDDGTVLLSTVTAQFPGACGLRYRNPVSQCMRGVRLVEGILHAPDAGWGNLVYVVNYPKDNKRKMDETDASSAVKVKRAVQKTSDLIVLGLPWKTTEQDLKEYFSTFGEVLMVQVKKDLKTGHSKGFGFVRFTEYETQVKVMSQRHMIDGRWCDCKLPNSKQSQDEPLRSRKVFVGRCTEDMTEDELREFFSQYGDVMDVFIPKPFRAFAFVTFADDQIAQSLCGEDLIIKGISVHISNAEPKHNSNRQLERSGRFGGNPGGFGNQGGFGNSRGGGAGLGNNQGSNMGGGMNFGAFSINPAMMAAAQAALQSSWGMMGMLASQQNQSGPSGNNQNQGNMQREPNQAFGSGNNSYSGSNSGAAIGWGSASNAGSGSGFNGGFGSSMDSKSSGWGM
Assay Procedure: RNA Bind-n-Seq with designed 260-mer pool; 25 mM Tris-HCl, 150 mM KCl, 3 mM MgCl2, BSA (printed 500 mg/mL), 20 units/mL SUPERase IN; pH not stated; 500 nM RNA pool, 1 h, 4 C; TDP-43 5, 50, 500 nM; high values mean tight binding
Condition Notes: protein: recombinant; tags: SBP (GST cleaved off with PreScission; pGEX-GST-SBP)
Over roughly 9,900 sequences, “r (bound/input frequency ratio)” has its median near 0.7; the highest 2% begin near 6.5. This excerpt belongs to a sample that is enriched for the highest values.
Measurement Kind: binding signal

{"columns": ["Binder", "binding signal"],
 "data": [
  ["ENSMUSG00000042529.392|Kcnj12 (ssRNA) RNA: GGGAGUUCUACAGUCCGACGAUCGCUUCGAUAUCCGCAUGCUAGAUCAGUCCGACUUGAGUCCCUGCCCUGCCCUGGUUAUGCAGGCUGUACGACGCAGUGUGCAUCAGUCUGAGGAGUCUGGUGGUAAGUAAGCCUCUGCAGCAGACCCUGUCGGAGGCCAUGGGGGCGUGUGUGUGUGUGUGUGUGUGUGUGUGUGUGUGUGUGUGUGUGUGUGUGUGUGAACAUGUGUGAGGGUGUGGAGGUCCCAGGGUGUGUGUAUGUGAAUGUCAGUGGCUUGGGUGCUGUGUGGAGAGAGAGAGAGCUCUUGCGGUCGCACUAGUGUGGAAUUCUCGGGUGUCAAGG", "7.12 R (bound/input frequency ratio)"],
  ["ENSMUSG00000090935.723|Synj2bp (ssRNA) RNA: GGGAGUUCUACAGUCCGACGAUCGCUUCGAUAUCCGCAUGCUAAACAUUGUUUUAUUCCUAGGUGCUCAGGACAGACUGAUCAACCUCCAGUAACAUAUGUGGUUAGUAAGUGCUUCAGCUUGUGUAGCCAUUAAUAACCAAGUCAUAGGAUUGUGAAUCUAAAAUACUCCUGGGUAAAAUUUGUAUUAGAAUGGAAAAAAAAAUGAGGGUCAGAAAGGUGAGCUAACUUCAAGUUAGAUACUCCCCUCUAUUUUGGUCUCAAAUUUGUUUUAGUGUGUCCACAACAUGAAAACAUACAAAAACUCUUGCGGUCGCACUAGUGUGGAAUUCUCGGGUGUCAAGG", "0.199 R (bound/input frequency ratio)"],
  ["ENSMUSG00000029028.255|Lrrc47 (ssRNA) RNA: GGGAGUUCUACAGUCCGACGAUCGCUUCGAUAUCCGCAUGCUAGCUCACAGGUCCCUUUGAGUGGCUGUGGCAAGUACUCACCUACUAAGUGUUUAGGGUGGAGCUAUCCUGUGCUCACCCUGUCUCCCCCCAGUUCCUGCUGUUCCCUCCAGCCCAGCCCAGCCCAGGUGUGAGAUUCAUUGAGAUUUUUGAAACUGUUUUUACAGAUUCAAGCAGAACGCCUCUUUGUUCUAAUAAAAACCCUUGGUAACGACAUCUCUGCAUCAGCAGCCUUAGCACAUGCGUCUCCCAGGACAGUGUUGCUCUUGCGGUCGCACUAGUGUGGAAUUCUCGGGUGUCAAGG", "0.69 R (bound/input frequency ratio)"]
]}

Now consider a different binder.
Data point: ENSMUSG00000031028.261|Tub (ssRNA) RNA: GGGAGUUCUACAGUCCGACGAUCGCUUCGAUAUCCGCAUGCUACCAGAGGGAAGCAAAGAGCAUUUAGACAUUGCUUUUUGCUUUGAAAUAGAUAUGUUUGGAAACGCUAAGUAGAAGUUUAAAAAGUAGAGUCAUGUAGAGUCAUGCUUUGAAUAUGUGGGUCAUGCUUUAGAUAUGAAGAGGCUAUGCAGGUAAGGAGGCUGGAUUGAUGUAAAUGGAAGUAGUACUUUAAGAAAGCUCUAGAUUUCCCAGGUUGGACACUCGACGAAAGGCACACCUGCUGCAGCAGGUUCUGACACACCCUCUUGCGGUCGCACUAGUGUGGAAUUCUCGGGUGUCAAGG ; binding signal = 2.37 R (bound/input frequency ratio)
